B1: ZNF449 (parent)
chain: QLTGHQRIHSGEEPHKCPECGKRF

- Variants of: B1
- experiment-notes: protein stability index of a GFP-peptide fusion (GPS, HEK-293T) (PSI 1-6); higher = more stable;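 further: lentivirally expressed fusions sorted by FACS into six bins by GFP to DsRed ratio, PSI derived from sequencing read proportions per bin multiplied by bin number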
- test-context: c terminus: a fixed tail appended
measured-quantity: protein stability index
Write no unit; give the number alone.

Please review the entries below; each comes with its answer.
INSERT INTO results (sequence_entry, measured_quantity, test_value) VALUES
  ('GLTGHQRIHSGEEPHKCPECGKRF [Q1G]', 'protein stability index', 4.83),
  ('QLTGHQRIHSGPEPHKCPECGKRF [E12P]', 'protein stability index', 3.48),
  ('NLTGHQRIHSGEEPHKCPECGKRF [Q1N]', 'protein stability index', 4.09),
  ('QLTGHQWIHSGEEPHKCPECGKRF [R7W]', 'protein stability index', 3.36),
  ('QLTGHQRIFSGEEPHKCPECGKRF [H9F]', 'protein stability index', 3.78),
  ('CLTGHQRIHSGEEPHKCPECGKRF [Q1C]', 'protein stability index', 4.74);

QUERY: # query: protein stability index of entry QLTGHQRIHSGEEPHRCPECGKRF [K16R]
RESULT: 3.41

QUERY: What value of protein stability index has been reported for the following variant? QLTGHFRIHSGEEPHKCPECGKRF [Q6F]
RESULT: 2.85

QUERY: Field request: protein stability index | item: QLTGHQRIHSGEEPHKCPECGKRA [F24A]
RESULT: 5.07

QUERY: Give its protein stability index value. Item: QLGGHQRIHSGEEPHKCPECGKRF [T3G]
RESULT: 3.69

QUERY: So what's the measured protein stability index for this one? QLTGHQRIHSGEEPHKCAECGKRF [P18A]
RESULT: 3.92

QUERY: Please look up its protein stability index: QLTGHPRIHSGEEPHKCPECGKRF [Q6P]
RESULT: 4.04

QUERY: Name the reported protein stability index value associated with the variant QLHGHQRIHSGEEPHKCPECGKRF [T3H]
RESULT: 4.45

QUERY: I would be grateful if you could share the reported protein stability index for QLTGHQRIHVGEEPHKCPECGKRF [S10V] .
RESULT: 4.09

QUERY: Look up protein stability index for this variant: QLTGHQRIHSGEEPHKCPEEGKRF [C20E]
RESULT: 5.41

QUERY: What does the data say about its protein stability index? Entry: QLTGHQRIHSGEEHHKCPECGKRF [P14H]
RESULT: 3.88

QUERY: Suppose we examine the variant QLTGHQRIHSGEEPTKCPECGKRF [H15T] ; what protein stability index value has been reported?
RESULT: 4.52

QUERY: For the variant shown here, DLTGHQRIHSGEEPHKCPECGKRF [Q1D] , give the reported protein stability index.
RESULT: 3.45

QUERY: Form field: reported protein stability index of QLTGHLRIHSGEEPHKCPECGKRF [Q6L]
RESULT: 3.83

QUERY: So what does the record say about protein stability index for QLTGHGRIHSGEEPHKCPECGKRF [Q6G] ?
RESULT: 3.44

QUERY: Returns the measured protein stability index for the input variant. Input: QLTGHQRIHSGEEPIKCPECGKRF [H15I]
RESULT: 4.8

QUERY: Please look up its protein stability index: QYTGHQRIHSGEEPHKCPECGKRF [L2Y]
RESULT: 3.66

QUERY: Recorded protein stability index of QLTGHQRIHAGEEPHKCPECGKRF [S10A] , please.
RESULT: 4.01

QUERY: Can you look up the measured protein stability index of QLTGHQRIHSGEEPHKCPECGKRN [F24N] for me?
RESULT: 4.4

QUERY: Looking for the measured protein stability index of QLTGHSRIHSGEEPHKCPECGKRF [Q6S] , can you help?
RESULT: 4.24
